Hello, the source for this data is ChEMBL document CHEMBL4196120, in case you need it.

- tested.system: Gap junction beta-2 protein (Homo sapiens) (UniProt P29033)
- protocol.details: Inhibition of recombinant human Cx26 expressed in Escherichia coli LB2003 assessed as reduction in cell growth measured after 18 hrs

[
  {
    "smiles": "NC[C@H]1O[C@H](O[C@H]2[C@H](O)[C@@H](O[C@@H]3O[C@H](COCc4ccc5ccccc5c4)[C@@H](OCc4ccc5ccccc5c4)[C@H](N)[C@H]3O)[C@H](N)C[C@@H]2N)[C@H](O)[C@@H](O)[C@@H]1O",
    "Imax, %": 94
  },
  {
    "smiles": "CO[C@@H]1[C@@H](O[C@@H]2O[C@H](COCc3ccccc3)[C@@H](OCc3ccccc3)[C@H](N)[C@H]2OC)[C@H](N)C[C@H](N)[C@H]1O[C@H]1O[C@H](CN)[C@@H](OC)[C@H](OC)[C@H]1OC",
    "Imax, %": 99
  },
  {
    "smiles": "COc1ccc(COC[C@H]2O[C@@H](O[C@@H]3[C@@H](O)[C@H](O[C@H]4O[C@H](CN)[C@@H](O)[C@H](O)[C@H]4O)[C@@H](N)C[C@H]3N)[C@H](O)[C@@H](N)[C@@H]2OCc2ccc(OC)cc2)cc1",
    "Imax, %": 94
  },
  {
    "smiles": "NC[C@H]1O[C@H](O[C@H]2[C@H](O)[C@@H](O[C@@H]3O[C@H](COCc4ccccc4)[C@@H](OCc4ccccc4)[C@H](N)[C@H]3O)[C@H](N)C[C@@H]2N)[C@H](O)[C@@H](O)[C@@H]1O",
    "Imax, %": 99
  }
]

====

- Test system: Cx26
- protocol.details: Ratio of compound effect for cytotoxicity against human HeLa cells to IC50 for recombinant human Cx26 expressed in Escherichia coli LB2003
- Format: toxicity
Listed here: items and their measured selectivity ratio.
measured.quantity: selectivity ratio

[
  {
    "smiles": "NC[C@H]1O[C@H](O[C@H]2[C@H](O)[C@@H](O[C@@H]3O[C@H](COCc4ccc(F)cc4)[C@@H](OCc4ccc(F)cc4)[C@H](N)[C@H]3O)[C@H](N)C[C@@H]2N)[C@H](O)[C@@H](O)[C@@H]1O",
    "tested.system": "Cx26",
    "measured.quantity": "selectivity ratio",
    "assay.value": "≤ 20"
  },
  {
    "smiles": "NC[C@H]1O[C@H](O[C@H]2[C@H](O)[C@@H](O[C@@H]3O[C@H](COCc4cccc(-c5ccccc5)c4)[C@@H](OCc4cccc(-c5ccccc5)c4)[C@H](N)[C@H]3O)[C@H](N)C[C@@H]2N)[C@H](O)[C@@H](O)[C@@H]1O",
    "tested.system": "Cx26",
    "measured.quantity": "selectivity ratio",
    "assay.value": "≤ 20"
  },
  {
    "smiles": "NC[C@H]1O[C@H](O[C@H]2[C@H](O)[C@@H](O[C@@H]3O[C@H](COCc4ccc5ccccc5c4)[C@@H](OCc4ccc5ccccc5c4)[C@H](N)[C@H]3O)[C@H](N)C[C@@H]2N)[C@H](O)[C@@H](O)[C@@H]1O",
    "tested.system": "Cx26",
    "measured.quantity": "selectivity ratio",
    "assay.value": "≤ 20"
  }
]

====

- tested.system: Gap junction beta-2 protein (Homo sapiens)
- protocol.details: Inhibition of recombinant human Cx26 expressed in Escherichia coli LB2003 assessed as reduction in cell growth measured after 18 hrs

[
  {
    "smiles": "NC[C@H]1O[C@H](O[C@H]2[C@H](O)[C@@H](O[C@@H]3O[C@H](COCc4ccc(Cl)cc4)[C@@H](OCc4ccc(Cl)cc4)[C@H](N)[C@H]3O)[C@H](N)C[C@@H]2N)[C@H](O)[C@@H](O)[C@@H]1O",
    "Imax / %": 94
  },
  {
    "smiles": "NC[C@H]1O[C@H](O[C@H]2[C@H](O)[C@@H](O[C@@H]3O[C@H](COCc4cccc5ccccc45)[C@@H](OCc4cccc5ccccc45)[C@H](N)[C@H]3O)[C@H](N)C[C@@H]2N)[C@H](O)[C@@H](O)[C@@H]1O",
    "Imax / %": 94
  },
  {
    "smiles": "CCCCOC[C@H]1O[C@@H](O[C@@H]2[C@@H](O)[C@H](O[C@H]3O[C@H](CN)[C@@H](O)[C@H](O)[C@H]3O)[C@@H](N)C[C@H]2N)[C@H](O)[C@@H](N)[C@@H]1OCCCC",
    "Imax / %": 99
  },
  {
    "smiles": "Cc1ccc(COC[C@H]2O[C@@H](O[C@@H]3[C@@H](O)[C@H](O[C@H]4O[C@H](CN)[C@@H](O)[C@H](O)[C@H]4O)[C@@H](N)C[C@H]3N)[C@H](O)[C@@H](N)[C@@H]2OCc2ccc(C)cc2)cc1",
    "Imax / %": 94
  },
  {
    "smiles": "CCCCCCCCOC[C@H]1O[C@@H](O[C@@H]2[C@@H](O)[C@H](O[C@H]3O[C@H](CN)[C@@H](O)[C@H](O)[C@H]3O)[C@@H](N)C[C@H]2N)[C@H](O)[C@@H](N)[C@@H]1OCCCCCCCC",
    "Imax / %": 99
  }
]
